TARGET_OF_ASSAY: GlcNAc(b1-3)Gal(b1-4)GlcNAc(b1-3)Gal(b1-4)GlcNAc(b1-3)Gal(b1-4)GlcNAc(b1-3)Gal(b1-4)GlcNAc(b1-2)Man(a1-3)[GlcNAc(b1-3)Gal(b1-4)GlcNAc(b1-3)Gal(b1-4)GlcNAc(b1-3)Gal(b1-4)GlcNAc(b1-3)Gal(b1-4)GlcNAc(b1-2)Man(a1-6)]Man(b1-4)GlcNAc(b1-4)[Fuc(a1-6)]GlcNAc
METHOD: glycan array binding signal (z-score within array); higher = stronger binding
TEST_CONTEXT: glycan notation: IUPAC condensed, linker removed
The sample as a whole holds a higher share of the strongest signals than the screen did.
Please use fulfilled whenever glycan array binding signal (z-score) is not below 4, and not fulfilled whenever it is.

>>> classification("SP15308F-bth-333-19-333 (Bacteroides thetaiotaomicron) (protein) SCNNEWESEQYVQMVSFKAPVNAQGVTPIYIRYKPEGKVTYQLPLIVSGSTMNSKDLNVHVGLDLDTLDVLNVEHFGSRKELFFKPLENKYYEFPETVQIPAGECTSLLPIDFALKDLDQVDKWVLPLAIQSNDPSHNYQANPRKFYRRAMLRISPFNDYSGQYSATAYKVYFKGNEKEAIVPEYHTSYVIDDKTIFFYAGLIDIDRLDRKYYKIKFEFTEEKIDLQTRKLKISSDNEDINLVVKGQPSYTVEEEMDATRPYLKHIYVTINNLEYEFTDYTSVPGYPLEYVVKGSLTMERKINTQIPDEDQAIEW")
"not fulfilled"
>>> classification("Jacalin (Artocarpus integrifolia) (protein) MAYSSLLSLSVLALLFSISSADTRKWFLANGINQNPIGIIEAAVGVSEDLLNLNGMEAKNDEQSGISQTVIVGPWGAKVSTSSNGKAFDDGAFTGIREINLSYNKETAIGDFQVVYDLNGSPYVGQNHKSFITGFTPVKISLDFPSEYIMEVSGYTGNVSGYVVVRSLTFKTNKKTYGPYGVTSGTPFNLPIENGLIVGFKGSIGYWLDYFSMYLSL")
"fulfilled"
>>> classification("Gal 7 (Homo sapiens) (protein) MSNVPHKSSLPEGIRPGTVLRIRGLVPPNASRFHVNLLCGEEGGSDAALHFNPRLDTSEVVFNSKEGGSWGREERGPGVPFGRGQPFEVLIIASDDGFKAVVGDAQYHHFRHRLPLARVRLVEVGGDVQLDSVRIF")
"fulfilled"
>>> classification("CLEC5A (Homo sapiens), Q9NY25 (protein) MNWHMIISGLIVVVLKVVGMTLFLLYFPQIFNKSNDGFTTTRSYGTVSQIFGSSSPSPNGFITTRSYGTVCPKDWEFYQARCFFLSTSESSWNESRDFCKGKGSTLAIVNTPEKLKFLQDITDAEKYFIGLIYHREEKRWRWINNSVFNGNVTNQNQNFNCATIGLTKTFDAASCDISYRRICEKNAK")
"not fulfilled"
>>> classification("EUL D1A first (Oryza sativa) (protein) MFGFGHHHNQAPAAPSDPNQIFKIFCRANENYCLTVRDSAVVLAPVNPKDEHQHWFKDMRFSTKVKDGEGMPAFALVNKATGLAVKHSLGQSHPVKLVPFNPEYEDASVLWTESKDVGKGFRCIRMVNNTRLNLDAFHGDKDHGGVRDGTTVVLWEWCKGDNQSWKILPWGPEAHSSSPGAATILEQKLISEEDLNSAVDHHHHHH")
"not fulfilled"
>>> classification("LlpA (Arthrobacter sp) (protein) MGSSHHHHHHSSGLVPRGSHMTLHPETALRPGAAATSPNSRYRLLYQTDGNLVLYGPDGPLWDSGTNGHGAGACIMQADGNLVLYGPNDEYVWDTETDNNPGSRLVIQDDGNAVIYRPDGSPLWATETCQPPGSADSHVLQSGSTLTPTHGIRSANGLYGLLYQTDGNLVFYGPDGPLWDSGTNGRGAGACIMQPDGNLVLYGPHDEYVWDTETDNNPGSRLVIQDDGNAVIYRPDGNPTWVTGTH")
"not fulfilled"
